# ASSAY EXPLANATION: gradient 5% acetonitrile 3 min, to 50% in 2 min, to 85% in 15 min, held 3 min, 100 µL/min
# EXPERIMENTAL CONDITIONS: column: Zorbax Extend-C18 2.1 x 50 mm; eluents: water / acetonitrile, 0.1% formic acid
Respond with Y for RP-LC retention time values of 800 s and above, N for values below.

compound=O=C(NCc1ccc(F)cc1Cl)C1CCN(c2cncnc2N2CCCC2)CC1 assigned_category=N
compound="CC1(c2ccccc2)O[C@@H]2C[C@H]3[C@@H]4CCC5=CC(=O)C=C[C@]5(C)[C@@]4(F)[C@@H](O)C[C@]3(C)[C@]2(C(=O)CO)O1 (stereo partly specified)" assigned_category=Y
compound=Cc1cc(C(=O)N(CCc2cccs2)Cc2cccnc2)c(C)o1 assigned_category=N
compound=CCc1noc(NC(C)=O)c1-c1ccc(OC)c(S(=O)(=O)Nc2ccccc2F)c1 assigned_category=N

Is the recorded value of RP-LC retention time equal to or greater than 800 s for this compound? `Cc1nn(C)c(C)c1S(=O)(=O)N1[C@H]2CC[C@@H]1c1cnc(-c3ccc(F)cc3)nc1C2`
Y

# bool: RP-LC retention time of `CCOc1cc(=O)n2c(c1C(=O)NCCOC)CCCCC2` >= 800 s
N

Please indicate if the recorded RP-LC retention time for `CCc1ccccc1S(=O)(=O)N1CCN(c2nc3ccncc3n(C(C)C)c2=O)CC1` meets or exceeds 800 s.
N

Could you verify whether the entry `Cc1ccc(NC(=O)Cn2c(N3CCOCC3)nc(C)cc2=O)c(Cl)c1` shows RP-LC retention time of no less than 800 s?
N

----------
# ASSAY EXPLANATION: gradient 5% acetonitrile 3 min, to 50% in 2 min, to 85% in 15 min, held 3 min, 100 µL/min
# EXPERIMENTAL CONDITIONS: column: Zorbax Extend-C18 2.1 x 50 mm; eluents: water / acetonitrile, 0.1% formic acid
EXPERIMENTAL READOUT: RP-LC retention time (s)
Quick note: give the figure in s, leave out the unit.

// solved cases for RP-LC retention time follow
compound=O=C(CC1CC1)N1CC(F)(F)C[C@H]1c1nnc(-c2ccccc2)o1 display_unit=s test_result=804
compound="O=C(Nc1ccc(F)cc1)N1CCCC1c1nc(-c2ccccc2)no1 (configuration not stated)" display_unit=s test_result=947
compound=O=C(c1ccc2ccnc(N3CCN(c4ccc(Cl)cc4)CC3)c2c1)N1CCC2(CC1)OCCO2 display_unit=s test_result=791
compound="CCn1cnc(S(=O)(=O)N2CCCC(C(=O)N3CCN(c4ccccn4)CC3)C2)c1 (configuration not stated)" display_unit=s test_result=575
compound=Cc1ccc(C(=O)N2CCc3nc(-c4ccc(F)cc4)ncc3C2)cc1C display_unit=s test_result=901
compound="Cc1cc(C2CCCN2C(=O)Nc2ccc(C)c(Cl)c2)no1 (configuration not stated)" display_unit=s test_result=906
compound=COc1cc(N2CCN(C(=O)c3cnccn3)CC2)nc(C)n1 display_unit=s test_result=515
compound="CC1CCC2(CC1)NC(=O)N(CC(=O)N(C)c1ccccc1)C2=O (configuration not stated)" display_unit=s test_result=805
compound="COc1ccc(C(=O)N2CCN3CCS(=O)(=O)N(C4CC4)C(=O)C3C2)c(OC)c1 (configuration not stated)" display_unit=s test_result=711
compound=O=C(c1csc(S(=O)(=O)N2CCC(C(=O)N3CCCCCC3)CC2)c1)N1CCOCC1 display_unit=s test_result=722

Consider the compound Cc1ccc(N2CC(c3nc(-c4ccncc4)no3)CC2=O)cc1Cl (configuration not stated) and give its recorded RP-LC retention time.
845

Tell us which RP-LC retention time value is on record for O=C(NCCc1ccccc1)C1CCCN(C(=O)Cc2cccc3ccccc23)C1 (configuration not stated)
906
